Origin of values: PubChem BioAssay (NCI)

Tested on: SW-620 colon
Assay: NCI-60 one-dose screen, 48 h (100 = growth as untreated, 0 = no growth, -100 = all killed)
Details: 10 µM unless noted
The panel holds about 83,000 compounds, 20% with a hit somewhere; the sample as a whole holds those more often.
outcome measure: growth (%)
Numbers only, in %.

# return growth for each item in the list
1. COc1ccc(/C=N\Nc2nc(SCC(C)C)nc(-c3ccc(OC)cc3)c2C#N)cc1
2. CCOC(=O)C1=C(C)N=C2SC=C(c3ccc(F)cc3)N2[C@H]1c1cn(-c2ccccc2)nc1-c1ccc(Cl)cc1
3. C/C=C(\C)C(=O)N[C@H]1CC[C@]2(C)C3CC[C@@]4(C)C(CC[C@@H]4C(C)N(C)C)C3CCC2[C@H]1OC(C)=O (some centres not stated)
4. CCC(=O)Oc1cc(Cl)c(Cl)cc1Cl
5. CCOC(=O)c1ccc(Nc2ncnc3c2cnn3-c2cccc(F)c2)cc1
6. c1ccc(-c2cc(-c3cc(-c4ccccc4)on3)no2)cc1
7. O=C(NNc1ccccc1)c1ncc[nH]1

output:
[51, 100, -93, 107, 99.8, 51.5, 60.7]

====

Hi there, I'd appreciate the recorded growth for every entry that follows.
Tested on: EKVX NSCLC
Assay: NCI-60 one-dose screen, 48 h (100 = growth as untreated, 0 = no growth, -100 = all killed)
Details: 10 µM unless noted
Compounds without any hit were thinned out: in the full panel of roughly 83,000, 20% have a hit. The source made the active and inactive calls. Rule for the calls: active = growth percent below 10; inactive = the rest.

- C=C(C)[C@@H]1CC[C@]2(C(=O)O)CC[C@]3(C)[C@H](CC[C@@H]4[C@@]5(C)CCC(N)C(C)(C)[C@@H]5CC[C@]43C)[C@@H]12 (some centres undefined): 67.6% (inactive)
- CN(Cc1ccccc1)c1nc(Cl)c(C2CC(c3ccc(F)cc3)=NN2C=O)s1 (centres undefined): 77.9% (inactive)
- C=C[C@]1(C)C=C2CC[C@@H]3C(C)(C)C(=O)CC[C@@]3(C)[C@@H]2CC1: 101% (inactive)
- NS(=O)(=O)OCC1OC(n2cnc3cncnc32)C(O)C1O (centres undefined): 69.5% [0.1 µM] (inactive)
- CCOC(=O)c1ccc(Nc2ncnc3c2cnn3-c2cccc(F)c2)cc1: 97.5% (inactive)
- N=C(N)c1ccc(-c2ccc(-c3ccc(Cl)c(Cl)c3)s2)cc1: 72.4% (inactive)

# return growth for each item in the list
1. O=C(N=Nc1c(O)[nH]c2ccccc12)Nc1ccc(Br)cc1
2. Cc1nc2cccc(NCCCCC(=O)NO)c2c(=O)n1-c1ccccc1

output:
1: 86.6% (inactive); 2: 63.8% (inactive)

Entry under test: `CCN(CC)CC#CCOC(=O)[C@]1(C)CCC[C@]2(C)c3ccc(C(C)C)cc3CC[C@@H]12` . Its growth was 86.6% (inactive)

====

Hi there, I'd appreciate the recorded growth for every entry that follows.
Test system: OVCAR-3 ovarian
Assay: NCI-60 one-dose screen, 48 h (100 = growth as untreated, 0 = no growth, -100 = all killed)
Conditions: 10 µM unless noted
About 83,000 compounds went through this panel and 20% of them were active in at least one assay; those are over-represented in the sample as a whole.
Give bare numbers, in %.

Field: example entries. Status: answers known.
* CC[C@@H]1NC(=O)[C@H]([C@H](O)[C@H](C)C/C=C/c2ccc(CN3C(=O)C(C)=C(C)C3=O)cc2)N(C)C(=O)[C@H](C(C)C)N(C)C(=O)[C@H](CC(C)C)N(C)C(=O)[C@H](CC(C)C)N(C)C(=O)[C@@H](C)NC(=O)[C@H](C)NC(=O)[C@H](CC(C)C)N(C)C(=O)[C@H](C(C)C)NC(=O)[C@H](CC(C)C)N(C)C(=O)CN(C)C1=O | 76.7
* COc1ccc(/C=N\Nc2nc(SCC(C)C)nc(-c3ccc(OC)cc3)c2C#N)cc1 | 9.64

Next molecule, please.
Entry under test: `CN1CCN(C(=O)OCc2nc3c(N4CCOCC4)nc(Cl)nc3n2C)CC1` . Its growth was -80.4
